Data provenance: the supplement of paper PMC10065799

# System: Fer (mouse)
# Test description: phosphorylation enrichment, bacterial display (enrichment ratio); higher = better substrate or ligand; peptides without Tyr show the background;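 also: 11-residue human phosphosite peptides and single-mutation variants displayed on the E. coli surface, counted by deep sequencing, each peptide's frequency after selection divided by its frequency in the unselected input library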;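 also: frequency after pTyr selection over input frequency; kinase dosed for 20-30% of maximal phosphorylation in three min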
Entries and their measured phosphorylation enrichment follow.
// print number alone

>  <Primary sequence>
LGGSPYPSVPV [FGFR1_Y701_G703S]

>  <Endpoint label>
phosphorylation enrichment

>  <Quantitative result>
0.675

$$$$

Query: Please give the measured phosphorylation enrichment for this sequence: VDLSKYITTIA [FAS_Y232]
Result: 0.394

Query: # repeat for KELSNYKHLTL [SLIT2_Y776]
Result: 0.423

Query: Also EEGNPSYSSAR [MCCC2_Y520_Y520S] ?
Result: 0.513

Query: Item: AGTILYHAHLD [ASS1_Y291]
Result: 0.398

Query: # iterate: FISVGYVDDTQ [HLA-B_Y51]
Result: 0.471

Query: Similarly, KGIQLYDTPFE [SHB_Y297_YF] ?
Result: 2.8

Query: What would you report for QRPYVYYYSYL [PTEN_Y176_R173P] ?
Result: 2

Query: Thanks! And HKLSFCEFDFE [BTK_Y40_Y40C_YF] ?
Result: 0.965

Query: Same again, this time with KRYRIYHLATS [BRCA2_Y3009]
Result: 0.313

Query: Now give it for NYDLDYDSVQP [MYC_Y16] too.
Result: 1.09

Query: What do you get for SLKEFYGEDAK [ALDH3A1_Y272] ?
Result: 0.588

Query: Now the same for MTFQNYRQALF [FAM20C_Y279_G280R]
Result: 0.451

Query: Please give the result for AAGGRYFGLVG [HARS1_Y363_D364Y_YF] too.
Result: 0.389

Query: Can you handle RLLRGYDQFAY [HLA-C_Y137_S140F] next?
Result: 0.502

Query: Again, but for TSSAGYRAAEG [COL6A3_Y543]
Result: 0.429

Query: Entry to check: SIFKDYFRFNF [PLA2G2D_Y85_YF]
Result: 0.428

Query: Then what about the sequence YIATQYSLRPR [LBR_Y166] ?
Result: 0.439

Query: Again, but for SLGSPYGQPPR [PDLIM4_Y137]
Result: 0.356

Query: Also EMFNPCFGLFE [NEDD4L_Y679_Y679C_YF] ?
Result: 0.811

Query: Moving on to the next sequence: SIKHKYVTALY [KCNH2_Y611_D609H]
Result: 0.398

---

# Experimental system: FGFR3 (UniProt P22607)
# Sequence (P22607 whole entry, looked up): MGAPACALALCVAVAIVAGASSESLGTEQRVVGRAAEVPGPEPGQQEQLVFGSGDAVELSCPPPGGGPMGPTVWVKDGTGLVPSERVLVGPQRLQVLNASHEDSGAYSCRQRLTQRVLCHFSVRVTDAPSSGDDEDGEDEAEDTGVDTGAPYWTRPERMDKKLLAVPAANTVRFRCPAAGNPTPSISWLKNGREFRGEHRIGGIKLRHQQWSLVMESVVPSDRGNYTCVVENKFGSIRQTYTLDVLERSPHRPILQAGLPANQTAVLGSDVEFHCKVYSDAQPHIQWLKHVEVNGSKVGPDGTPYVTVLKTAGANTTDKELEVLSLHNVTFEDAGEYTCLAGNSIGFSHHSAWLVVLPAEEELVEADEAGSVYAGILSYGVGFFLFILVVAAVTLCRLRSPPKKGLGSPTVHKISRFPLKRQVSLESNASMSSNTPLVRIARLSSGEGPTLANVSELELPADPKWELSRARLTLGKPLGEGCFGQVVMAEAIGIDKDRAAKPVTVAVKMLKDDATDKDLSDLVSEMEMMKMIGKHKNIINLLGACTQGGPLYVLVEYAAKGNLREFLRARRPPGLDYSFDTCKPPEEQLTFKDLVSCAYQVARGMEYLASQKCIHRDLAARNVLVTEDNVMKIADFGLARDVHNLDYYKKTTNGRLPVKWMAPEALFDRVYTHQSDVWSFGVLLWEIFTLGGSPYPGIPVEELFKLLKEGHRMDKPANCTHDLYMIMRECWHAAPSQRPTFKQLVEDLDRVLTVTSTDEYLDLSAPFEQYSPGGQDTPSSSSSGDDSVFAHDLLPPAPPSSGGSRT
# Test description: phosphorylation enrichment, bacterial display (enrichment ratio); higher = better substrate or ligand; peptides without Tyr show the background
Endpoint label: phosphorylation enrichment

Consider the reported phosphorylation enrichment for these sequences:
>  <Primary sequence>
DFDNLYFWDQD [ERBB2_Y1221_A1216D_YF]

>  <Result>
7.69

$$$$
>  <Primary sequence>
NFDRVYIFHLR [MYOF_Y1137_YF]

>  <Result>
0.897

$$$$
>  <Primary sequence>
KWRGQYDVANK [BTK_Y425_I429N]

>  <Result>
0.57

$$$$
>  <Primary sequence>
STKELYEKYMI

>  <Result>
0.591

$$$$
>  <Primary sequence>
AAGGRYFGLVG [HARS1_Y363_D364Y_YF]

>  <Result>
0.471

$$$$
>  <Primary sequence>
RDWSLYFKIIE [KRT18_Y129_H128L]

>  <Result>
0.841

$$$$

Consider the record given below.
Query: FGFR3 (UniProt P22607) / phosphorylation enrichment / FRASFYRRGDR [LTK_Y677_YF] : value?
Result: 0.526
